// reported inhibition per item
# Subject Of Test: Dual specificity protein kinase CLK2 (Homo sapiens) (UniProt P49760)
# Sequence (P49760 whole entry, looked up): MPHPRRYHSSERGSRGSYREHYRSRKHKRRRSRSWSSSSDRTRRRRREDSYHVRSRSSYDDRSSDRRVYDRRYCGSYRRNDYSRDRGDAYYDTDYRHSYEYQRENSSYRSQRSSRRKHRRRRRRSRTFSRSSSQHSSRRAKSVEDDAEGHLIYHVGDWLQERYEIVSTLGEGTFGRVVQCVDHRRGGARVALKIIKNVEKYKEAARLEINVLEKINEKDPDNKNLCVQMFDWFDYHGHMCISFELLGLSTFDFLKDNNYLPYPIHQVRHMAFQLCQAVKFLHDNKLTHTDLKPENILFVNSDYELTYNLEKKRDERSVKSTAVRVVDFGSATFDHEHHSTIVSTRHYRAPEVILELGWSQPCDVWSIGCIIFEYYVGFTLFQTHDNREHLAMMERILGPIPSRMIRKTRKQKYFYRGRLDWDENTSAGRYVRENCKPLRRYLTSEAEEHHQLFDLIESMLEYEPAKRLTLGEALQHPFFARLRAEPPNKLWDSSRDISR
# Condition Context: at 0.1 µM
# Description: GSK_PKIS: CLK2 mean inhibition at 0.1 uM [Nanosyn]
Numeric only. Scale: %

Completed entries (count: 5):
CS(=O)(=O)CCNCc1ccc(-c2ccc3ncnc(Nc4ccc(OCc5ccccc5)c(Br)c4)c3c2)o1    1.39
O=C1NC(=O)C(c2cccc(Cl)c2)=C1Nc1ccc(Cl)c(C(=O)O)c1    3.2
Fc1ccc(-c2ncn(C3CCNCC3)c2-c2ccnc(Oc3ccc4c(c3)OCO4)n2)cc1    0.55
CN(C)c1ccc2c(c1)/C(=C/Nc1ccc(S(N)(=O)=O)cc1)C(=O)N2    1.72
CN(C)CCOc1ccc(-c2cc(-c3ccc4c(c3)CCC4=NO)c(-c3ccncc3)o2)cc1    0.73

For the next question, use this molecule.
input: Look up inhibition: COc1cccc(/C=N/Nc2ncnc3c2cnn3-c2cccc(OC)c2)c1
output: 0.01

###

# Subject Of Test: Serine/threonine-protein kinase Sgk2 (Homo sapiens) (UniProt Q9HBY8)
# Sequence (Q9HBY8 whole entry): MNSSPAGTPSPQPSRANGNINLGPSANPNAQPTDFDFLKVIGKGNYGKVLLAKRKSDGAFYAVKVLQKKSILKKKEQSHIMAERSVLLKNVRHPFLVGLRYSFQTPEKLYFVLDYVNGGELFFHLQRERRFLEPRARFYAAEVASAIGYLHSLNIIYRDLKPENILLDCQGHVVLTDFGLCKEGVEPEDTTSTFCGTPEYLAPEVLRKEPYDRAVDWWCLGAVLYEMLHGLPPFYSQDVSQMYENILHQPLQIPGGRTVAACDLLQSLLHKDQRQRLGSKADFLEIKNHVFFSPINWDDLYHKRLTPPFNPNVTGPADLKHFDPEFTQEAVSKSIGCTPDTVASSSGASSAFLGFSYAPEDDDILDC
# Condition Context: at 1 µM
# Description: GSK_PKIS: SGK2 mean inhibition at 1 uM [Nanosyn]
Label t for high-side inhibition (at or above 3%) and f for low-side inhibition (below it).

Below are worked cases with known answers.
CCC(=O)Nc1ccc(C)c(-c2ccc(C(=O)NCC3CC3)cc2)c1    f
CN(c1ccc(NC(=O)Nc2c(Cl)cccc2Cl)cc1)c1ccnc(Nc2cccc(CS(C)(=O)=O)c2)n1    t
COc1cccc(-n2cnc3c(N/N=C/c4ccncc4)ncnc32)c1    f

input: Determine whether this compound has inhibition no lower than 3%: COc1cc(C)c(N(C)C(=O)CN(C)C)cc1Nc1nc(Nc2cccc(F)c2C(N)=O)c2cc[nH]c2n1
output: t

input: Now this one: O=C(Nc1n[nH]c2cc(-c3cc(F)ccc3F)ccc12)C1CC1
output: f

input: Same for CN(C)CCOc1ccc(-c2cc(-c3ccc4c(c3)CCC4=NO)c(-c3ccncc3)o2)cc1
output: f

input: Would you kindly repeat that for CN1CCN(CCCNc2nc3ccc(Oc4ccc(NC(=O)Nc5cc(C(F)(F)F)ccc5F)cc4)cc3[nH]2)CC1 ?
output: f

input: Param item: O=C1Nc2ccc(I)cc2C1=Cc1cc(Br)c(O)c(Br)c1
output: f

input: And the next one, NC(=O)c1cc(-c2ccc(F)cc2)cc(-c2ccncc2)c1N ?
output: f

input: Follow-up item: Fc1ccc(-c2ncn(C3CCNCC3)c2-c2ccnc(Oc3ccc(Oc4ccccc4)cc3)n2)cc1
output: t

###

Quick reference for inhibition among some compounds
# Subject Of Test: Calcium/calmodulin-dependent protein kinase type II subunit delta (Homo sapiens)
# Condition Context: at 1 µM
Form entry: value (%) — number only.

input: Endpoint output: inhibition of COc1cc2ncn(-c3cc(OCc4cccs4)c(C(N)=O)s3)c2cc1OC . Value?
output: 2.97

input: Input COc1cccc(/C=N/Nc2ncnc3c2cnn3-c2cccc(OC)c2)c1
output: 6.18

input: Further, for O=C(NCC1CC1)c1ccc(-c2cccc(C(=O)NC3CC3)c2)cc1 ?
output: 3.64

input: What do we get for Nc1nccc(-c2c(-c3ccc(F)cc3)ncn2C2CCC(O)CC2)n1 (stereo not given) ?
output: 1.53

###

Below, each entry is listed alongside its reported inhibition.
# Subject Of Test: Phosphatidylinositol 4,5-bisphosphate 3-kinase catalytic subunit alpha isoform (Homo sapiens)
# Condition Context: at 0.1 µM
Answer in %, number only, no unit symbol.

NC(=O)c1ccc(Oc2nccc(-c3c(-c4ccc(F)cc4)ncn3C3CCNCC3)n2)cc1    6.13
O=C1Nc2ccccc2/C1=C/Nc1ccc(-n2cncn2)cc1    3.26
CCc1cccc(CC)c1/C=C/c1cncc(C(=O)NC)c1    1.54
O=C(NCC1CC1)c1ccc(-c2cccc(C(=O)NC3CC3)c2)cc1    1.61
COC(=O)Nc1nc2ccc(Sc3ccc(NC(=O)Nc4cc(C(F)(F)F)ccc4F)cc3)cc2[nH]1    -1.35
CCS(=O)(=O)c1ccc(OC)c(Nc2ncc(-c3cccc(-c4ccccc4F)c3)o2)c1    1.85
CNC(=O)c1cncc(/C=C/c2c(C)cccc2C)c1    -1.85
C#Cc1cccc(Nc2ncnc3ccc(OCCCCNCCS(C)(=O)=O)cc23)c1    5
NS(=O)(=O)c1ccc(Nc2cc(-c3ccc(O)c(F)c3)n[nH]2)cc1    -2.99
Cc1ccc(C(=O)NC2CCC2)cc1-c1ccc(C(=O)NCC2CC2)cc1    1.03

Query molecule follows.
input: Entry under review: Cc1ccc(NC(=O)c2ccoc2)cc1-c1ccc(C(=O)NCC2CC2)cc1 . Reported inhibition?
output: 2.81
